molecular target: Tom70:Orf9bHelix complex (Homo sapiens, UniProt O94826); construct: human Tom70 (residues 108–608); Avi tag (N, cleaved yes); His6 tag (N, cleaved yes); (GGS)5 linker and TEV cleavage site (N, cleaved yes); host or cells: E. coli BL21 (DE3) for Tom70; synthetic peptide; assay: biochemical; type: binding, human Tom70; SARS-CoV-2 Orf9b
Sequence (O94826 108-608): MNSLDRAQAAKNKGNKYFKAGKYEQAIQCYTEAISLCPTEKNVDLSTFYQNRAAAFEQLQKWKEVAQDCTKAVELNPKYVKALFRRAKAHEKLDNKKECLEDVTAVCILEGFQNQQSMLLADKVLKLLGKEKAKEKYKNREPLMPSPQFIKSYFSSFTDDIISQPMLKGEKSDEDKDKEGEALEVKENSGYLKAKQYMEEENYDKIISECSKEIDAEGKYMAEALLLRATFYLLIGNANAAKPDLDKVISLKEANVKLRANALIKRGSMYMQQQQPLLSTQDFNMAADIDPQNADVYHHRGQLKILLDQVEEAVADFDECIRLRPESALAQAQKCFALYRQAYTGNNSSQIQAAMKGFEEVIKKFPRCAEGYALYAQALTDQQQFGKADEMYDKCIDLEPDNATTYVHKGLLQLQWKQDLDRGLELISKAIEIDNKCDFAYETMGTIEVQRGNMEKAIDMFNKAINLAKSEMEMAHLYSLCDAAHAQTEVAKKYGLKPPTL
Sequence (P0DTD2 44-77 partner limits assumed): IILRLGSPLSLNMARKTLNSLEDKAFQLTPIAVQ
Where no end group is shown, it is not given here.
Reported Property: Kd (µM)
One number for each entry, in µM.

Which Kd value is on record for YDTSRMEEVD [Hsp90EEVD] ?
12

Data origin, for the record: paper doi:10.1101/2025.11.18.689095
